Target: PCV2 dcapsid mutant D70A (Porcine circovirus 2, UniProt O56129, D70A)
Construct: hexahistidine (N)
Test: Microscale thermophoresis assay (MST), dcapsid mutant D70A
Settings: read-out: Kd between EGCG and capsid mutant D70A
Readout kind: Kd (µM)
Express it in µM; write the number only.

Lab note: need Kd for O=C(O[C@@H]1Cc2c(O)cc(O)cc2O[C@@H]1c1cc(O)c(O)c(O)c1)c1cc(O)c(O)c(O)c1 [EGCG, Epigallocatechin gallate] on PCV2 dcapsid mutant D70A (Porcine circovirus 2, UniProt O56129, D70A), anyone have it?
864

###

Target: PCV2 dcapsid mutant D78A (Porcine circovirus 2, UniProt O56129, D78A)
Construct: hexahistidine (N)
Test: Microscale thermophoresis assay (MST), dcapsid mutant D78A
Settings: read-out: Kd between EGCG and capsid mutant D78A
Readout kind: Kd (µM)
Express it in µM; write the number only.

Could you tell me which Kd is on file for O=C(O[C@@H]1Cc2c(O)cc(O)cc2O[C@@H]1c1cc(O)c(O)c(O)c1)c1cc(O)c(O)c(O)c1 [EGCG, Epigallocatechin gallate] ?
1060

Hey, just so you know, these numbers are from paper PMC7077276.
